# System: 743489-274-T-PDC complex spheroid growth
# EXPERIMENTAL PROTOCOL: Anticancer human tumor 743489-274-T-PDC patient-derived renal cell carcinoma cell line growth inhibition [AhR]
# RUN PARAMETERS: second compound 0.1 µM; first compound 0.3 µM; active compounds read low
Please use 1 (yes) for viability, T/C under 60% and 0 (no) for everything else, ties included.

is_below(viability, T/C, 60%) for CCc1c2c(nc3ccc(O)cc13)-c1cc3c(c(=O)n1C2)COC(=O)[C@]3(O)CC + Cc1cncc(-c2nc(NCCc3c[nH]c4ccccc34)c3ncn(C(C)C)c3n2)c1 ?
0 (no)

is_below(viability, T/C, 60%) for Nc1ncn(C2CC(O)C(CO)S2)c(=O)n1 (configuration not stated) + Cc1cncc(-c2nc(NCCc3c[nH]c4ccccc34)c3ncn(C(C)C)c3n2)c1 ?
0 (no)

is_below(viability, T/C, 60%) for Nc1ncn(C2CC(O)C(CO)S2)c(=O)n1 (configuration not stated) + Cc1ccccc1N=Nc1ccc(NC(=O)c2ccnn2C)c(C)c1 ?
0 (no)

is_below(viability, T/C, 60%) for CCc1c2c(nc3ccc(O)cc13)-c1cc3c(c(=O)n1C2)COC(=O)[C@]3(O)CC + Cc1ccccc1N=Nc1ccc(NC(=O)c2ccnn2C)c(C)c1 ?
1 (yes)

is_below(viability, T/C, 60%) for CC(C)CC(NC(=O)C(Cc1ccccc1)NC(=O)c1cnccn1)B(O)O (configuration not stated) + Cc1cncc(-c2nc(NCCc3c[nH]c4ccccc34)c3ncn(C(C)C)c3n2)c1 ?
1 (yes)

is_below(viability, T/C, 60%) for CCN(c1cc(-c2ccc(CN3CCOCC3)cc2)cc(C(=O)NCc2c(C)cc(C)[nH]c2=O)c1C)C1CCOCC1 + CC(CO)NC(=O)c1cc(-c2ccc(Cl)cc2)nn(-c2cnn(C)c2)c1=O ?
0 (no)

is_below(viability, T/C, 60%) for O=C(C=Cn1cnc(-c2cc(C(F)(F)F)cc(C(F)(F)F)c2)n1)NNc1cnccn1 + CC(CO)NC(=O)c1cc(-c2ccc(Cl)cc2)nn(-c2cnn(C)c2)c1=O ?
0 (no)

is_below(viability, T/C, 60%) for O=C(C=Cn1cnc(-c2cc(C(F)(F)F)cc(C(F)(F)F)c2)n1)NNc1cnccn1 + Cc1cncc(-c2nc(NCCc3c[nH]c4ccccc34)c3ncn(C(C)C)c3n2)c1 ?
0 (no)

is_below(viability, T/C, 60%) for O=C(C=Cn1cnc(-c2cc(C(F)(F)F)cc(C(F)(F)F)c2)n1)NNc1cnccn1 + Cc1ccccc1N=Nc1ccc(NC(=O)c2ccnn2C)c(C)c1 ?
0 (no)

is_below(viability, T/C, 60%) for CCc1c2c(nc3ccc(O)cc13)-c1cc3c(c(=O)n1C2)COC(=O)[C@]3(O)CC + CC(CO)NC(=O)c1cc(-c2ccc(Cl)cc2)nn(-c2cnn(C)c2)c1=O ?
0 (no)

is_below(viability, T/C, 60%) for CCN(c1cc(-c2ccc(CN3CCOCC3)cc2)cc(C(=O)NCc2c(C)cc(C)[nH]c2=O)c1C)C1CCOCC1 + Cc1cncc(-c2nc(NCCc3c[nH]c4ccccc34)c3ncn(C(C)C)c3n2)c1 ?
0 (no)

is_below(viability, T/C, 60%) for CC(C)CC(NC(=O)C(Cc1ccccc1)NC(=O)c1cnccn1)B(O)O (configuration not stated) + CC(CO)NC(=O)c1cc(-c2ccc(Cl)cc2)nn(-c2cnn(C)c2)c1=O ?
1 (yes)

---

Record form. Attribute: viability, T/C. Fill in for each entry.
# Tested on: 743489-274-T-PDC complex spheroid growth
# EXPERIMENTAL PROTOCOL: Anticancer human tumor 743489-274-T-PDC cell line growth inhibition [AhR];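 also: spheroids exposed to agents for 7 days before readout; 100% = DMSO vehicle control wells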
# RUN PARAMETERS: second compound 1 µM; first compound 10 µM; active compounds read low
Express it in %; write the number only.

Name the reported viability, T/C value associated with the molecule O=C(c1cc(Cc2n[nH]c(=O)c3ccccc23)ccc1F)N1CCN(C(=O)C2CC2)CC1 + CC(CO)NC(=O)c1cc(-c2ccc(Cl)cc2)nn(-c2cnn(C)c2)c1=O
97

Name the reported viability, T/C value associated with the molecule Nc1ccn(C2OC(CO)C(O)C2(F)F)c(=O)n1 (stereo unspecified) + Cc1cncc(-c2nc(NCCc3c[nH]c4ccccc34)c3ncn(C(C)C)c3n2)c1
68.9

Name the reported viability, T/C value associated with the molecule O=C(c1cc(Cc2n[nH]c(=O)c3ccccc23)ccc1F)N1CCN(C(=O)C2CC2)CC1 + Cc1ccccc1N=Nc1ccc(NC(=O)c2ccnn2C)c(C)c1
83.3

Name the reported viability, T/C value associated with the molecule O=C(C=Cc1cccc(S(=O)(=O)Nc2ccccc2)c1)NO + CC(CO)NC(=O)c1cc(-c2ccc(Cl)cc2)nn(-c2cnn(C)c2)c1=O
49.4

Name the reported viability, T/C value associated with the molecule COc1cc(C2c3cc4c(cc3C(OC3OC5COC(C)OC5C(O)C3O)C3COC(=O)C23)OCO4)cc(OC)c1O (stereo unspecified) + Cc1cncc(-c2nc(NCCc3c[nH]c4ccccc34)c3ncn(C(C)C)c3n2)c1
80.8

Name the reported viability, T/C value associated with the molecule CC1(C)CCC(CN2CCN(c3ccc(C(=O)NS(=O)(=O)c4ccc(NCC5CCOCC5)c([N+](=O)[O-])c4)c(Oc4cnc5[nH]ccc5c4)c3)CC2)=C(c2ccc(Cl)cc2)C1 + Cc1cncc(-c2nc(NCCc3c[nH]c4ccccc34)c3ncn(C(C)C)c3n2)c1
128

---

Record form. Attribute: viability, T/C. Fill in for each entry.
# System: 743489-274-T-PDC complex spheroid growth
# EXPERIMENTAL PROTOCOL: Anticancer human tumor 743489-274-T-PDC cell line growth inhibition [AhR];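 also: spheroids exposed to agents for 7 days before readout; 100% = DMSO vehicle control wells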
# RUN PARAMETERS: second compound 0.316 µM; first compound 0.0316 µM; active compounds read low
Express it in %; write the number only.

Name the reported viability, T/C value associated with the compound Cn1ncnc1C1c2n[nH]c(=O)c3cc(F)cc(c23)NC1c1ccc(F)cc1 (configuration not stated) + Cc1ccccc1N=Nc1ccc(NC(=O)c2ccnn2C)c(C)c1
97.8

Name the reported viability, T/C value associated with the compound CC1COCCN1c1cc(-c2ccnn2C)c2ccnc(-c3ccn[nH]3)c2n1 (configuration not stated) + Cc1ccccc1N=Nc1ccc(NC(=O)c2ccnn2C)c(C)c1
89.6

Name the reported viability, T/C value associated with the compound COc1cc(Nc2ncc3c(n2)-c2ccc(Cl)cc2C(c2c(F)cccc2OC)=NC3)ccc1C(=O)O + Cc1ccccc1N=Nc1ccc(NC(=O)c2ccnn2C)c(C)c1
91.4

Name the reported viability, T/C value associated with the compound CC1COCCN1c1cc(C2(S(C)(=N)=O)CC2)nc(-c2ccnc3[nH]ccc23)n1 (configuration not stated) + CC(CO)NC(=O)c1cc(-c2ccc(Cl)cc2)nn(-c2cnn(C)c2)c1=O
90.2

Name the reported viability, T/C value associated with the compound Nc1ncn(C2CC(O)C(CO)O2)c(=O)n1 (configuration not stated) + Cc1ccccc1N=Nc1ccc(NC(=O)c2ccnn2C)c(C)c1
89.8

Name the reported viability, T/C value associated with the compound CC1(C)CCC(CN2CCN(c3ccc(C(=O)NS(=O)(=O)c4ccc(NCC5CCOCC5)c([N+](=O)[O-])c4)c(Oc4cnc5[nH]ccc5c4)c3)CC2)=C(c2ccc(Cl)cc2)C1 + CC(CO)NC(=O)c1cc(-c2ccc(Cl)cc2)nn(-c2cnn(C)c2)c1=O
110

Name the reported viability, T/C value associated with the compound CC[C@@]1(O)C(=O)OCc2c1cc1n(c2=O)Cc2cc3c(CN(C)C)c(O)ccc3nc2-1 + Cc1cncc(-c2nc(NCCc3c[nH]c4ccccc34)c3ncn(C(C)C)c3n2)c1
92.8

---

# Tested on: 743489-274-T-PDC complex spheroid growth
# EXPERIMENTAL PROTOCOL: Anticancer human tumor 743489-274-T-PDC cell line growth inhibition [AhR];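 also: spheroids exposed to agents for 7 days before readout; 100% = DMSO vehicle control wells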
# RUN PARAMETERS: second compound 0.316 µM; first compound 0.03 µM; active compounds read low
Please use t for viability, T/C under 90% and f for everything else, ties included.

is_below(viability, T/C, 90%) for O=C(C=Cn1cnc(-c2cc(C(F)(F)F)cc(C(F)(F)F)c2)n1)NNc1cnccn1 + Cc1ccccc1N=Nc1ccc(NC(=O)c2ccnn2C)c(C)c1 ?
f

is_below(viability, T/C, 90%) for CCc1c2c(nc3ccc(O)cc13)-c1cc3c(c(=O)n1C2)COC(=O)[C@]3(O)CC + Cc1cncc(-c2nc(NCCc3c[nH]c4ccccc34)c3ncn(C(C)C)c3n2)c1 ?
t

is_below(viability, T/C, 90%) for Nc1ncn(C2CC(O)C(CO)S2)c(=O)n1 (stereo not given) + Cc1ccccc1N=Nc1ccc(NC(=O)c2ccnn2C)c(C)c1 ?
t

is_below(viability, T/C, 90%) for CC(C)CC(NC(=O)C(Cc1ccccc1)NC(=O)c1cnccn1)B(O)O (stereo not given) + Cc1ccccc1N=Nc1ccc(NC(=O)c2ccnn2C)c(C)c1 ?
t

is_below(viability, T/C, 90%) for CC(C)CC(NC(=O)C(Cc1ccccc1)NC(=O)c1cnccn1)B(O)O (stereo not given) + CC(CO)NC(=O)c1cc(-c2ccc(Cl)cc2)nn(-c2cnn(C)c2)c1=O ?
t

is_below(viability, T/C, 90%) for O=C(C=Cn1cnc(-c2cc(C(F)(F)F)cc(C(F)(F)F)c2)n1)NNc1cnccn1 + CC(CO)NC(=O)c1cc(-c2ccc(Cl)cc2)nn(-c2cnn(C)c2)c1=O ?
f

is_below(viability, T/C, 90%) for Nc1ncn(C2CC(O)C(CO)S2)c(=O)n1 (stereo not given) + Cc1cncc(-c2nc(NCCc3c[nH]c4ccccc34)c3ncn(C(C)C)c3n2)c1 ?
f

is_below(viability, T/C, 90%) for CCc1c2c(nc3ccc(O)cc13)-c1cc3c(c(=O)n1C2)COC(=O)[C@]3(O)CC + CC(CO)NC(=O)c1cc(-c2ccc(Cl)cc2)nn(-c2cnn(C)c2)c1=O ?
t

is_below(viability, T/C, 90%) for CCc1c2c(nc3ccc(O)cc13)-c1cc3c(c(=O)n1C2)COC(=O)[C@]3(O)CC + Cc1ccccc1N=Nc1ccc(NC(=O)c2ccnn2C)c(C)c1 ?
t

is_below(viability, T/C, 90%) for CC(C)CC(NC(=O)C(Cc1ccccc1)NC(=O)c1cnccn1)B(O)O (stereo not given) + Cc1cncc(-c2nc(NCCc3c[nH]c4ccccc34)c3ncn(C(C)C)c3n2)c1 ?
t

is_below(viability, T/C, 90%) for CCN(c1cc(-c2ccc(CN3CCOCC3)cc2)cc(C(=O)NCc2c(C)cc(C)[nH]c2=O)c1C)C1CCOCC1 + Cc1ccccc1N=Nc1ccc(NC(=O)c2ccnn2C)c(C)c1 ?
f

is_below(viability, T/C, 90%) for CCN(c1cc(-c2ccc(CN3CCOCC3)cc2)cc(C(=O)NCc2c(C)cc(C)[nH]c2=O)c1C)C1CCOCC1 + CC(CO)NC(=O)c1cc(-c2ccc(Cl)cc2)nn(-c2cnn(C)c2)c1=O ?
f

is_below(viability, T/C, 90%) for CCN(c1cc(-c2ccc(CN3CCOCC3)cc2)cc(C(=O)NCc2c(C)cc(C)[nH]c2=O)c1C)C1CCOCC1 + Cc1cncc(-c2nc(NCCc3c[nH]c4ccccc34)c3ncn(C(C)C)c3n2)c1 ?
f

Data provenance is PubChem BioAssay AID1919002.
